Where these numbers come from: the RNAGym collection of RNA variant scans (doi:10.7554/elife.80360)

B1: HDV Ribozyme (parent)
chain: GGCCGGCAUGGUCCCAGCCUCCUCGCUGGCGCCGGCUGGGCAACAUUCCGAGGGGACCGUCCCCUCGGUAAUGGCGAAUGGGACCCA

- Variants of: B1
- assay_name: self-cleavage, relative activity (ratio to wild type); higher = more cleavage; co-transcriptional
// reported self-cleavage per item
Respond numerically, and do not add a unit to the figure.

Solved entries (count: 5):
Enquiry: GET /values?readout=self-cleavage&item= GGCCGGCAUGGUGCCAGCCUCCUCGCUGGCGCCGGCUGGGCAACAUUCCGAGGGGACCGUCCCCUCGGAAAUGGCGAAUGGGACCCA [C13G U69A]
Return: 0.0437

Enquiry: Queued: GGCCGGCAUGGACCCAGCCUCCUCGCUGGCGCCGGCUGGGCAACAUUCUGAGGGGACCGUCCCCUCGGUAAUGGCGAAUGGGACCCA [U12A C49U]
Return: 0.499

Enquiry: Same lookup for GGCCGGCAUGGUCCCAGCCUCCUCGCUGGCGCCGGCUCGGCAACAUUCCGAGGGGACCGUCCCCUCGGUAAUGGCGACUGGGACCCA [G38C A78C] , please.
Return: 0

Enquiry: GGCCGGCAUGGUCCCAGCCCCCUCGCUGGCGCCGGCUGGGCAACAUUCCGAGGGGACCGUCCCCUCGGUAAUGGCGAAUGGGACCCG [U20C A87G] , same question.
Return: 0.282

Enquiry: Next record, please: GGCCGGCAUGGUCCCAGCCUCCUCGCUCGUGCCGGCUGGGCAACAUUCCGAGGGGACCGUCCCCUCGGUAAUGGCGAAUGGGACCCA [G28C C30U]
Return: 0.0791

Next:
Enquiry: Given the entry GGCCGGCAUGGUCCCAGCCUCCUCGCUGGCCCCCGCUGGGCAACAUUCCGAGGGGACCGUCCCCUCGGUAAUGGCGAAUGGGACCCA [G31C G34C] , report its measured self-cleavage.
Return: 0.0396

Enquiry: Same read-out for GGCCGGCAUGGUCCCGGCCUCCUCGCUGGCGCCGGCUGGGCAACAUUCCAAGGGGACCGUCCCCUCGGUAAUGGCGAAUGGGACCCA [A16G G50A] ?
Return: 1.4
